test system: U2OS; assay: cell viability relative to DMSO; higher = less toxic; conditions: 72 h; 10 nM
Quantity kind: cell viability (%)
Provide the reading as a plain figure in %.

Some entries whose results are on file:
Compound	Unit label	Recorded result
N#Cc1cnc2cnc(NCc3cccnc3)cc2c1Nc1ccc(F)c(Cl)c1	%	106
CCCn1c(=O)[nH]c2nc(-c3ccc(S(=O)(=O)O)cc3)[nH]c2c1=O	%	109
CN1CCN(Cc2ccc(-c3cnc4[nH]cc(-c5ccc6[nH]ccc6c5)c4c3)cc2)CC1	%	95.5
COc1cc(Cc2cnc(N)nc2N)cc(OC)c1OC	%	98.4
COCc1nc2c([nH]1)c(=O)n(C)c(=O)n2CC(C)C	%	100
CC(C)OC(=O)[C@H](C)N[P@](=O)(CO[C@H](C)Cn1cnc2c(N)ncnc21)Oc1ccccc1 [tenofovir-alafenamide]	%	102
CCOC(=O)Nc1ccc(NCc2ccc(F)cc2)cc1N	%	97.4
COCCCOc1ccnc(C[S+]([O-])c2nc3ccccc3[nH]2)c1C (stereo not given)	%	97.4
CC[N+](C)(CC)CC(=O)Nc1c(C)cccc1C [N-methyllidocaine-iodide]	%	101
CCCCOc1ccc(CC/C=C2\SC(=O)N(CCN)C2=O)cc1	%	97.1

Q: // cell viability lookup, key: CNCc1cc(-c2ccccc2F)n(S(=O)(=O)c2cccnc2)c1
Ans: 100

Q: What value of cell viability has been recorded for this entry: CCOc1ccc(NC(C)=O)cc1
Ans: 94.6

Q: Consider the compound COc1cc(NC(=O)c2cccc(-n3cc(NC(=O)Nc4cccc(C)c4)cn3)c2)cc(OC)c1OC and give its measured cell viability.
Ans: 102

Q: Need cell viability of CC(C)NC(=N)NC(=N)Nc1ccc(Cl)cc1 , thanks.
Ans: 93.3

Data provenance is the supplement of paper PMC13380429.
